This section presents sequences with their documented SH2 binding enrichment values.
target_or_test_system: c-Src SH2
assay_explanation: SH2 binding enrichment of the phosphorylated peptide, bacterial display (enrichment ratio); higher = better substrate or ligand; peptides without Tyr show the background

Below, each entry is followed by its recorded SH2 binding enrichment result.
• NYRPGYNNFYN [USH2A_Y467] = 0.614
• ANVKWYRNGRE = 0.512

So, DASAVYLRDFQ [PLCG2_Y242_H244R] ? Its SH2 binding enrichment was 0.471

So, LNPLIYTLRNA [OR4C46_Y285_K288R] ? Its SH2 binding enrichment was 0.521

So, PNAYIYVVQLP [L1CAM_Y420_A415P] ? Its SH2 binding enrichment was 0.862

So, TKDTIYKQPMF [GBA_Y451_F450I] ? Its SH2 binding enrichment was 0.446

So, YLGEEYVKAVG [TF_Y674] ? Its SH2 binding enrichment was 0.509

So, MSRNLYSGDFF [DDR2_Y736_YF] ? Its SH2 binding enrichment was 0.773

So, VDSNPYSRLVA [UBA5_Y53_M57V] ? Its SH2 binding enrichment was 1.7

So, FSGIFYKPESL [L2HGDH_Y103_H98Y_YF] ? Its SH2 binding enrichment was 0.56

----------
target_or_test_system: EPHB1 (UniProt P54762)
Sequence (P54762 whole entry, looked up): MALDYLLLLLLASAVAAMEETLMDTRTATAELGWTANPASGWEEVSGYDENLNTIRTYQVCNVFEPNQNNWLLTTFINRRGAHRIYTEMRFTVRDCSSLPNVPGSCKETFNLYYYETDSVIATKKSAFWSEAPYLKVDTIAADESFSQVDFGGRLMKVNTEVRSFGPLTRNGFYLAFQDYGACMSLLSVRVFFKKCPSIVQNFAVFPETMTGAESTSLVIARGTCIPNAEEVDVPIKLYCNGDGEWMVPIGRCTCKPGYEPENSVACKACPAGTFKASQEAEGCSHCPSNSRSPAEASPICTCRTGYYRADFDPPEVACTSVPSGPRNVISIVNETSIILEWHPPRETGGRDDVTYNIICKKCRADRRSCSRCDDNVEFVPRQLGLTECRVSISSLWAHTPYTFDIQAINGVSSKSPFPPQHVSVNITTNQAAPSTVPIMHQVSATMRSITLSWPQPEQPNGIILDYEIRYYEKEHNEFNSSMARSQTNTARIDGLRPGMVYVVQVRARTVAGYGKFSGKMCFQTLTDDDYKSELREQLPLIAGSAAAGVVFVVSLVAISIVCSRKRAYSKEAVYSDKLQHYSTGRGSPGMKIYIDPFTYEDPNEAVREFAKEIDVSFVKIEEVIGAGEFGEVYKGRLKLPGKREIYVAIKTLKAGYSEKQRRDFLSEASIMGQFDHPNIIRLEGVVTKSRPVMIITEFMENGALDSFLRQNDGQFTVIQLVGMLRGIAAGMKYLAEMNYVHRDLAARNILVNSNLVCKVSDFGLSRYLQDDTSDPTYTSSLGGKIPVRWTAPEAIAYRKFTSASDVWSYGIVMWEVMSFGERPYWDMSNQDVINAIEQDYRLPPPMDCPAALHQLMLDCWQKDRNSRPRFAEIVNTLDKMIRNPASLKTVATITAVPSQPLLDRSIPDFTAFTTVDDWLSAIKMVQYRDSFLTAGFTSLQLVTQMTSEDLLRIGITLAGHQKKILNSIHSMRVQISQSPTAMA
assay_explanation: phosphorylation enrichment, bacterial display (enrichment ratio); higher = better substrate or ligand; peptides without Tyr show the background
outcome_measure: phosphorylation enrichment

Below, each entry is followed by its recorded phosphorylation enrichment result.
* KAPPTYDTVLQ [CYP3A4_Y347] | 6.72
* YLTSSYINIST [IL23R_Y178] | 0.735

So, SVTSTYSPALN [TP53_Y126_C124S] ? Its phosphorylation enrichment was 0.437

So, VSTKVYKRFPS [BEST1_Y148_A146K] ? Its phosphorylation enrichment was 0.344

----------
target_or_test_system: SHP2-C SH2
assay_explanation: SH2 binding enrichment of the phosphorylated peptide, bacterial display (enrichment ratio); higher = better substrate or ligand; peptides without Tyr show the background
outcome_measure: SH2 binding enrichment
The answer should be written as a number, with no unit following it.

- CTTIHYNFMHN [TP53_Y234_C238H_YF]: 0.836
- DGTGRYLCNAC [GATA5_Y208_H207R]: 0.644
- FGVVGYLAIMF [RNF175_Y155]: 0.872

So, GPGLVYRVANK [FLNB_Y1833_G1834R] ? Its SH2 binding enrichment was 0.722

So, LNPFIYSLRNC [OR1A2_Y288_W293C] ? Its SH2 binding enrichment was 0.734

So, SVVVPYESPEV [TP53_Y220_P222S] ? Its SH2 binding enrichment was 0.689

So, PLDGGYFTLQI [TP53_Y327_E326G] ? Its SH2 binding enrichment was 0.663

So, INVTIYGKTFR [EFHC1_Y177_I174V] ? Its SH2 binding enrichment was 0.581

So, STKPQYQPGEN [SRC_Y530_E527K] ? Its SH2 binding enrichment was 1.09

So, ATHRGYDLDNP [MMUT_Y146_S148L] ? Its SH2 binding enrichment was 0.654

So, RKLVDYDSAQH [BIN1_Y150_R154Q] ? Its SH2 binding enrichment was 0.607

So, ECKETYHEGEC [PRKN_Y372_A371T] ? Its SH2 binding enrichment was 0.75

So, LFSDHYSPSGR [TMPRSS12_Y23_YF] ? Its SH2 binding enrichment was 0.842
